- system-tested: Nuclear respiratory factor 1 (Homo sapiens)
- measurement-protocol: ATG_NRF1_CIS: Attagene CIS-FACTORIAL HepG2 Assay for human Nuclear Respiratory Factor 1 (NRF1) Orphan Gene (AID 2282987)
- recorded-conditions: HepG2 NRF1 cis-element reporter, Attagene multiplex; actives raise or lower the signal
Activity calls are given as the source filed them. The calls were made as follows: active = hit-call score of the fitted dose curve at least 0.9, where 1 is the maximum; inactive = score below 0.9.
Allowed answers: active, inactive

Before answering, review these 3 worked examples.
> print(dat)
                                   molecule  classification
1             Nc1cc([N+](=O)[O-])ccc1C(=O)O        inactive
2                      CCCCCCCCCCCCN1CCOCC1          active
3  CC(C)(C)c1cc(CCC(=O)OCCSCCOC(=O)CCc2cc(C(C)(C)C)c(O)c(C(C)(C)C)c2)cc(C(C)(C)C)c1O        inactive

-- ask Could you check what this test reported for `CC1=CCC(=C(C)C)CC1` ?
-- reply inactive

-- ask Could you check what this test reported for `CC/C(=C(\c1ccccc1)c1ccc(OCCN(C)C)cc1)c1ccccc1` ?
-- reply inactive

-- ask Could you check what this test reported for `O=C(O)c1cccc(Cl)n1` ?
-- reply inactive

-- ask Could you check what this test reported for `c1ccc(OCCOc2ccccc2)cc1` ?
-- reply inactive

-- ask Could you check what this test reported for `O=C1OC2(c3ccc(O)cc3Oc3cc(O)ccc32)c2ccccc21` ?
-- reply inactive

-- ask Could you check what this test reported for `CC(C)N1C(=O)c2ccccc2C1=O` ?
-- reply inactive

-- ask Could you check what this test reported for CCC(C)(C)C1CCC(OC)CC1 (stereo not drawn) ?
-- reply inactive

-- ask Could you check what this test reported for `CC(=O)OC/C=C(C)/C=C/C=C(C)/C=C/C1=C(C)CCCC1(C)C` ?
-- reply active

-- ask Could you check what this test reported for `CCOc1ccc(NC(C)=O)cc1` ?
-- reply inactive

-- ask Could you check what this test reported for C=C(C)C(=O)OCCC(C)OC(=O)C(=C)C (stereo not drawn) ?
-- reply inactive

* * *

- measurement-protocol: ATG_EGR_CIS: Attagene CIS-FACTORIAL HepG2 Assay for human Early Growth Response 1 (EGR1) (AID 2282938)
- recorded-conditions: HepG2 Attagene CIS-FACTORIAL EGR reporter mRNA; actives raise or lower the signal
- Procedure: ATG_CIS is a cell-based, multiplexed-readout assay that uses HepG2, a human liver cell line, with measurements taken at 24 hours after chemical dosing in a 24-well plate.ATG_EGR_CIS is one of 52 assay component(s) measured or calculated from the ATG_CIS assay. […] This assay endpoint, ATG_EGR_CIS, was analyzed with bidirectional fitting relative to DMSO as the negative control and baseline of activity. […]
The source made the active and inactive calls. Rule for the calls: active = hit-call score of the fitted dose curve at least 0.9, where 1 is the maximum; inactive = score below 0.9.
Allowed answers: active, inactive

-- ask Could you check what this test reported for `CCCCCCCCCCOC(=O)c1ccccc1C(=O)OCCCCCCCC` ?
-- reply inactive

-- ask Could you check what this test reported for `COc1ccc(C(C)=O)cc1` ?
-- reply inactive

-- ask Could you check what this test reported for `C1CCCNCC1` ?
-- reply inactive

-- ask Could you check what this test reported for CCCCCCC(C)O (stereo not drawn) ?
-- reply inactive

-- ask Could you check what this test reported for `CC(C)(C)c1ccc(S)cc1` ?
-- reply inactive

-- ask Could you check what this test reported for `O=C(O)c1ccc(C(=O)O)c(C(=O)O)c1` ?
-- reply inactive

-- ask Could you check what this test reported for `Cc1cccc(C)c1` ?
-- reply inactive

-- ask Could you check what this test reported for `CCOC(=O)C(=O)OCC` ?
-- reply inactive
